# tgt: Estrogen receptor (Homo sapiens)
# Sequence (P03372 whole entry): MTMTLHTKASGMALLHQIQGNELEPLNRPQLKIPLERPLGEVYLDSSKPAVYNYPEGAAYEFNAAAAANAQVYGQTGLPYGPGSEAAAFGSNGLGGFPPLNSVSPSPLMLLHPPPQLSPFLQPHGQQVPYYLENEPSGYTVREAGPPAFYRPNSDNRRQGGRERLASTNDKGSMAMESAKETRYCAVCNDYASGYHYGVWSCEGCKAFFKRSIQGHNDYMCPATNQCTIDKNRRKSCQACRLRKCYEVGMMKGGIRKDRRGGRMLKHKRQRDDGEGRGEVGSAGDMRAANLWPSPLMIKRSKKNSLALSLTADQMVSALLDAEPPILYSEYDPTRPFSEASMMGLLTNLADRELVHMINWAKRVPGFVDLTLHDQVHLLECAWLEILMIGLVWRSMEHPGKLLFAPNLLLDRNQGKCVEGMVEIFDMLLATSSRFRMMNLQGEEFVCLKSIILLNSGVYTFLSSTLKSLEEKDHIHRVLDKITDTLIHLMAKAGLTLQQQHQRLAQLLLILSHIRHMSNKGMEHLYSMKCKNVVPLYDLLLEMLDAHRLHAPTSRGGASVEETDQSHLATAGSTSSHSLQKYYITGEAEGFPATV
In this section we review reported EC50 values for a set of compounds.
// note: answer is a bare numeric in µM

{"columns": ["given_smiles", "test_value"],
 "data": [
  ["CCc1cc(-c2cc3ccc(O)cc3s2)ccc1O", 7.44],
  ["Cc1cc(-c2cc3ccc(O)cc3s2)ccc1O", 3.65],
  ["Oc1ccc2cc(-c3ccc(O)c(O)c3)sc2c1", 4.98],
  ["Cc1cc(O)ccc1-c1cc2ccc(O)cc2s1", 0.341],
  ["Oc1ccc2cc(-c3ccc(O)c(F)c3)sc2c1", 1.03]
]}

IN: Hello, please tell me recorded EC50 for this one: Oc1cccc(-c2cc3ccc(O)cc3s2)c1
OUT: 2.21

IN: Hello, please tell me recorded EC50 for this one: Oc1ccc2cc(-c3ccccc3)sc2c1
OUT: 3.71

====

In this section we review reported pEC50 values for a set of compounds.
# tgt: Estrogen receptor beta (Homo sapiens)
# Sequence (Q92731 whole entry): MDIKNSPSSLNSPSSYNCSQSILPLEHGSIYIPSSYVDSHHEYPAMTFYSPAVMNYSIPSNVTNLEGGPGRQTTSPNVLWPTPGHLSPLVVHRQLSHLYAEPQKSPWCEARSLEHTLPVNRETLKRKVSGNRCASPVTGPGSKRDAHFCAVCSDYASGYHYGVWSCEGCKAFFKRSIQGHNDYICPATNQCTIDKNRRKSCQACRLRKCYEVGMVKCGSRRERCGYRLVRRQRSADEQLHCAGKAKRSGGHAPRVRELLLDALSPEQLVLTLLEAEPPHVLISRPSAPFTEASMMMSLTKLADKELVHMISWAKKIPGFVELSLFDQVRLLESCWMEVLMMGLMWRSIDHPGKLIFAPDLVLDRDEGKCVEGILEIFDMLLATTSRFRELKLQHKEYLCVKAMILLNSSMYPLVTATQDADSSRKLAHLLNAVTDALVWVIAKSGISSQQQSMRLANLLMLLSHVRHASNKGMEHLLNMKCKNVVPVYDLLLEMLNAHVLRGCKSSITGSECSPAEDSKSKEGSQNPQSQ
# test_name: Agonist activity in transcriptional activation assay in SH-SY5Y neuroblastoma cells expressing Estrogen receptor beta
# Format: functional, cell-based
Scale note: pEC50 = -log10(concentration in M).

{"columns": ["compound", "test_value"],
 "data": [
  ["CCCc1cc(-c2cc3ccc(O)cc3s2)ccc1O", 6.59],
  ["Oc1ccc(-c2cc3ccc(O)cc3s2)cc1 [RALOXIFENE CORE]", 8.00],
  ["Cc1ccc(-c2cc3ccc(O)cc3s2)cc1", 6.92]
]}

IN: Hello, please tell me recorded pEC50 for this one: Cc1cc(O)ccc1-c1cc2ccc(O)cc2s1
OUT: 7.80

IN: Hello, please tell me recorded pEC50 for this one: Oc1ccc2cc(-c3ccccc3)sc2c1
OUT: 7.16

IN: Hello, please tell me recorded pEC50 for this one: Oc1ccc2cc(-c3ccc(O)c(F)c3)sc2c1
OUT: 7.89

====

// EC50 collected for Estrogen receptor beta (Homo sapiens, UniProt Q92731)
// note: answer is a bare numeric in nM

As a guide, the following entries are already answered.
{"columns": ["given_smiles", "EC50 / nM"],
 "data": [
  ["CCCc1cc(-c2cc3ccc(O)cc3s2)ccc1O", 186],
  ["Cc1cc(O)ccc1-c1cc2ccc(O)cc2s1", 15],
  ["Oc1cccc(-c2cc3ccc(O)cc3s2)c1", 245],
  ["Oc1ccc2cc(-c3ccc(O)c(O)c3)sc2c1", 525],
  ["Oc1ccc(-c2cc3ccc(O)cc3s2)cc1", 17]
]}

Continue with the compound presented below.
IN: Hello, please tell me recorded EC50 for this one: CCc1cc(-c2cc3ccc(O)cc3s2)ccc1O
OUT: 257

====

// EC50 collected for Estrogen receptor beta (Homo sapiens, UniProt Q92731)

As a guide, the following entries are already answered.
{"columns": ["compound", "EC50"],
 "data": [
  ["CCc1cc(-c2cc3ccc(O)cc3s2)ccc1O", "4.71 µM"],
  ["Oc1ccc2cc(-c3ccccc3)sc2c1", "4.31 µM"],
  ["CC(=O)c1cc(-c2cc3ccc(O)cc3s2)ccc1O", "> 10 µM"],
  ["Oc1ccc2cc(-c3ccc(O)c(O)c3)sc2c1", "0.249 µM"]
]}

IN: Hello, please tell me recorded EC50 for this one: Oc1ccc(-c2cc3ccc(O)cc3s2)cc1 [RALOXIFENE CORE]
OUT: 0.114 µM

IN: Hello, please tell me recorded EC50 for this one: Oc1cc(O)c2cc(-c3ccc(O)c(F)c3)sc2c1
OUT: 7.47 µM

IN: Hello, please tell me recorded EC50 for this one: Cc1cc(O)ccc1-c1cc2ccc(O)cc2s1
OUT: 0.129 µM

IN: Hello, please tell me recorded EC50 for this one: Cc1cc(-c2cc3c(O)cc(O)cc3s2)ccc1O
OUT: > 10 µM

IN: Hello, please tell me recorded EC50 for this one: CCCc1cc(-c2cc3ccc(O)cc3s2)ccc1O
OUT: 3.94 µM

IN: Hello, please tell me recorded EC50 for this one: Cc1ccc(-c2cc3ccc(O)cc3s2)cc1
OUT: > 10 µM

IN: Hello, please tell me recorded EC50 for this one: Oc1cccc(-c2cc3ccc(O)cc3s2)c1
OUT: 0.74 µM

IN: Hello, please tell me recorded EC50 for this one: Cc1cc(-c2cc3ccc(O)cc3s2)ccc1O
OUT: 1.83 µM

IN: Hello, please tell me recorded EC50 for this one: Oc1ccc2cc(-c3ccc(O)c(F)c3)sc2c1
OUT: 0.115 µM

Data credit: ChEMBL document CHEMBL1135900
